- Study Target: PDE4C1 (Homo sapiens (Human))
- Sequence (Q08493 whole entry): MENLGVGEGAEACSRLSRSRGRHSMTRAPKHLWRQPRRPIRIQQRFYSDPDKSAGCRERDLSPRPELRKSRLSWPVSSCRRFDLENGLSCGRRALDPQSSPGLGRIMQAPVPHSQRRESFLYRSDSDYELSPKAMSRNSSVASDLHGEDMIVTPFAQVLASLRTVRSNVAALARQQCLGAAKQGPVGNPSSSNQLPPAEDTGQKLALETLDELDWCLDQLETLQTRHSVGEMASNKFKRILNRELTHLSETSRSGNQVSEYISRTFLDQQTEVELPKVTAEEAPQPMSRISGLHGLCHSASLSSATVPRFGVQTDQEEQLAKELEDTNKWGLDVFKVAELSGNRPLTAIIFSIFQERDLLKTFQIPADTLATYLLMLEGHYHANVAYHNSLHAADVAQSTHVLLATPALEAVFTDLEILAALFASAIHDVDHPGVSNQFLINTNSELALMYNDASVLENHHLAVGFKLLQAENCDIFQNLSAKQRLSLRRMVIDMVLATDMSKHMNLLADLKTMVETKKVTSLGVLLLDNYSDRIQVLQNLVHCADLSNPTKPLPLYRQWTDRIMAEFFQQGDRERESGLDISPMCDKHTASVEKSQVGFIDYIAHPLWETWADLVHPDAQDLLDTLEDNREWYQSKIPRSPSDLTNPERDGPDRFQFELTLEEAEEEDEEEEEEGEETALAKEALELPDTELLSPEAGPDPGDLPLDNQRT
- Protocol Summary: PDE4 inhibition assay (fluorescence polarization), PDE4C1
- Format: biochemical
- Test Parameters: 10 μM
Recorded Metric: PDE4C1 % INH @ 10 μM (%)
Could you give me the number in %? Just the number is fine.

COc1ccc(C23C=CC(O)CC2N(C)CC3)cc1OC [Compound 024, (S, S, R) Mesembrenol] :: 18

[Q] Given the entry COc1ccc([C@@]23CC[C@@H](O)C[C@@H]2N(C)CC3)cc1OC [Compound 018] , report its measured PDE4C1 % INH @ 10 μM.
[A] 1

[Q] Moving on to the next compound: COc1ccc(C23C=CC(O)CC2N(C)CC3)cc1OC [Compound 023, (R, S, R) Mesembrenol]
[A] 9

[Q] Next up: COc1ccc([C@@]23CC[C@H](O)C[C@@H]2N(C)CC3)cc1OC [Compound 019]
[A] 3

[Q] Thanks! And COc1ccc(C23C=CC(O)CC2N(C)CC3)cc1OC [Compound 020, (S, R, S) Mesembrenol] ?
[A] 32

[Q] Next compound up: COc1ccc(C23C=CC(O)CC2N(C)CC3)cc1OC [Compound 021, (R, R, S) Mesembrenol]
[A] 7
